Data provenance: the supplement of paper PMC6755084

B1: F1*; the commonest letter at each place (parent)
chain: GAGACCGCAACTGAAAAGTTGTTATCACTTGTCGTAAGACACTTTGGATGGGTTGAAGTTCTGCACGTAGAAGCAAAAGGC

variants of: B1; assay: fraction ligated after 30 min (ligated reads / total reads); higher = more ligase activity; conditions: with F1*sub RNA substrate (template-directed ligation), 42 °C
endpoint_label: fraction ligated
Form rule: numeric answer, no unit written next to it.

Below: 3 variants and their reported fraction ligated.
sequence_variant | endpoint_label | reading
G55A A56G | fraction ligated | 0.821
T30G T32C C33G G38C A39G A41C | fraction ligated | 0.835
C28A T29A | fraction ligated | 0.798

Query: fraction ligated; subject: C26A A36G
0.781

What value of fraction ligated has been reported for the following variant? T25C G46C
0.474

I would be grateful if you could share the reported fraction ligated for T29G G46T .
0.805

// returns reported fraction ligated for input C28A C40T
0.773

Requested field: fraction ligated. Item: T30A A36C
0.854

Data request, read-out fraction ligated, for G55A A56T A57T
0.161

Name the recorded fraction ligated for G31T T44A .
0.768

Need fraction ligated of A24C A36C , thanks.
0.763

Report fraction ligated for C40T A41T please.
0.822

Give its fraction ligated value. Item: C42T G50A
0.634

Given C42T A48C , state its recorded fraction ligated.
0.779

For the variant shown here, C40T T45G , give the reported fraction ligated.
0.195

Report fraction ligated for T30G T49C please.
0.526

Which fraction ligated is listed for T30C T32C A39G A41G ?
0.816

State the recorded fraction ligated for this entry: C40T T43G
0.782

I would be grateful if you could share the reported fraction ligated for A37C A56C .
0.818

Report fraction ligated for T23A G31T please.
0.789

Please report the recorded fraction ligated for T32C T35A .
0.811

Can you look up the measured fraction ligated of T32G G55A for me?
0.803
